# assay_procedure: Cytotoxicity against mouse B16F10 cells assessed as reduction in cell viability after 48 hrs by MTT assay
# Format: functional, cell-based
# condition_details: B16-F10, 48 h

item_smiles	unit_spec	IC50
CCNCC(=O)Nc1ccc(/N=C2\SCC(=O)N2Cc2cccs2)cc1	µM	11.6
O=C(CN1CCCC1)Nc1ccc(/N=C2\SCC(=O)N2Cc2cccs2)cc1	µM	5.4
CCCNCC(=O)Nc1ccc(/N=C2\SCC(=O)N2Cc2cccs2)cc1	µM	3.4
CCN(CC)CC(=O)Nc1ccc(/N=C2\SCC(=O)N2Cc2cccs2)cc1	µM	7
